GI50 reference
# Tested on: OVCAR-5
# procedure.summary: NCI tumour cell line growth inhibition, 48 h
Activity calls are given as the source filed them. Rule as the data show it: active = GI50 up to about 1.1 µM and inactive = higher.

Worked cases, GI50 given:
CCOc1ccc(/N=C/C=C(\Cl)c2ccc3ccccc3c2)cc1 = 17.8 µM (inactive)
Fc1ccc2c(c1)cc1ccc3cccc4ccc2c1c34 = > 100 µM (inactive)
C=C(C)[C@H]1CC(=O)[C@@]2(C)C[C@H]3O[C@]3(C)CC/C=C(\C)CC[C@H]12 = 86.9 µM (inactive)
COC(=O)[C@@H](NC(=O)c1ccc(CNC(=O)/C(C)=C/c2ccccc2)cc1)C(C)C = > 100 µM (inactive)
C[C@H]1CC[C@@H]2[C@@H](C)[C@H]3[C@H](C[C@H]4[C@@H]5CC=C6C[C@@H](O)CC[C@]6(C)[C@H]5CC[C@]34C)N2C1 = > 100 µM (inactive)
COc1ccc(NC(C(N)=O)c2cc3cc(Br)ccc3nc2Cl)cc1 (stereo not drawn) = > 100 µM (inactive)
OCC1OC2c3ccccc3COC2C1OCc1ccccc1 (stereo not drawn) = > 100 µM (inactive)

With those in mind, consider the next molecule.
Query string: // lookup GI50 for `CCCCP(CCCC)(CCCC)=C(C(=O)OC)C(C(=O)OC)=C1SC(C(=O)OC)=C(C(=O)OC)S1`
Result string: 23 µM (inactive)

----------
# System: SF-539
# procedure.summary: NCI tumour cell line growth inhibition, 48 h
Calls of active or inactive are those of the source. No stated cut-off is given here; in the data, active = GI50 up to about 1.1 µM and inactive = higher.
Pick one: active, inactive

Study these solved cases before continuing.
N#CCCN(CCC#N)c1ccc(/C=C(/NC(=O)Nc2ccccc2Cl)NC(=O)c2cc([N+](=O)[O-])ccc2Cl)cc1 = inactive
CC1=C(C#N)C2C(=C(N)Oc3ccccc32)C(N)=N1 (stereo not drawn) = inactive
O=C(O)C(/C=C/c1ccccc1)c1ccccc1 (stereo not drawn) = inactive
CCCCCC(/C=N/N)C(O)(C(F)(F)F)C(F)(F)F (stereo not drawn) = inactive
Cc1cc(C)c(-c2noc(-c3ccc(Cl)cc3)c2C2=NCCCN2)c(C)c1 = inactive

Query string: Test call for this compound, please: C/C=C\C1OC1(C)c1cc(=O)c2c(C)cc3c(c2o1)C(=O)c1c(O)c(C2CC(C)(N(C)C)C(OC(C)=O)C(C)O2)cc(C2CC(N(C)C)C(O)C(C)O2)c1C3=O (stereo not drawn)
Result string: active

----------
# System: EKVX
# procedure.summary: NCI tumour cell line growth inhibition, 48 h
Calls of active or inactive are those of the source. No stated cut-off is given here; in the data, active = GI50 up to about 1.1 µM and inactive = higher.
reported.property: GI50

Examples from the recorded data:
COc1ccc2ccc3c(c2c1)CN1CCc2cc(OC)c(OC)cc2C1C3 (centres undefined) = > 100 µM (inactive)
C[C@H](CCC(=O)O)[C@H]1CC[C@H]2[C@@H]3CC[C@@H]4C[C@H](O)CC[C@]4(C)[C@H]3C[C@H](O)[C@]12C = 31.4 µM (inactive)
CCN(CC)CC1CCCCN1CC(=O)N1c2cc(Cl)ccc2NC(=O)CC1C (centres undefined) = > 100 µM (inactive)

Switching to the query record.
Query string: Param item = Cc1ccc(NC(c2ccccc2)c2ccc3cccnc3c2O)cc1 (centres undefined) ; retrieve measured GI50.
Result string: 3.47 µM (inactive)

----------
Item-by-item account of GI50
# Test system: CAKI-1
# procedure.summary: NCI tumour cell line growth inhibition, 48 h
Calls of active or inactive are those of the source. Rule as the data show it: active = GI50 up to about 1.1 µM and inactive = higher.

Consider the worked cases shown below.
O=C(NCCCNCCCCNCCCNC(=O)c1cc(-c2ccccc2)nc2ccccc12)c1cc(-c2ccccc2)nc2ccccc12 = 20.3 µM (inactive)
CCOC(=O)C(=O)CC(=O)C(Br)C(Br)c1ccc(Cl)cc1 (stereo not given) = 40.7 µM (inactive)
N#C/C(=C\c1cc(OCc2ccccc2)c(OCc2ccccc2)cn1)C(N)=O = > 100 µM (inactive)

Consider the record given below.
Query string: Would you mind telling me what GI50 value was observed for CC[C@]1(Cc2ccc(OC)c(OC)c2)[C@@H]2C[C@@H](C3OCCO3)ON2O[C@H](OC2CCCC2(c2ccccc2)c2ccccc2)[C@@H]1OC(C)=O (stereo not given in full) ?
Result string: 32.8 µM (inactive)
